biological target: human DLL3 protein expressed on CHO-K1 recombinant cells (human DLL3 extracellular segment fused to EpCAM transmembrane and intracellular regions) (human) (UniProt Q9NYJ7); assay: FACS, CHO-K1 hDLL3 cells, 0.0064 nM antibody
Sequence (Q9NYJ7 other isoform, or with tags, fused parts or gaps limits assumed): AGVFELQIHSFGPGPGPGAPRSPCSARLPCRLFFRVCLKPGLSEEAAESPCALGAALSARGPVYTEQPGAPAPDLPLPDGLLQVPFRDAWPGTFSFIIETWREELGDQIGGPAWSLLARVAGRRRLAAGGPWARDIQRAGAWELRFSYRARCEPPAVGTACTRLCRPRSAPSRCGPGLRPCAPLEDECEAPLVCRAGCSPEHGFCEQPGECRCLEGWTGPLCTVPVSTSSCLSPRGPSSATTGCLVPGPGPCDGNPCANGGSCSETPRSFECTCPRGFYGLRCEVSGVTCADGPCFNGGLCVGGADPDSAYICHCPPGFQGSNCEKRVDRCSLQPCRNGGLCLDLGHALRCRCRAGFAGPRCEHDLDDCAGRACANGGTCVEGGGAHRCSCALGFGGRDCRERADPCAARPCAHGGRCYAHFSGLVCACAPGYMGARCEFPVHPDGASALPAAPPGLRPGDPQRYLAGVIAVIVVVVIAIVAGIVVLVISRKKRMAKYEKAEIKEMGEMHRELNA
Entries annotated with measured MFI
measured_endpoint: MFI (MFI)

binder: Hab008L1H2a-hFc (scFv, part only; not given: VL-VH linker and human IgG1 Fc, V domains shown, not shown: another chain or arm of the molecule; a dimerising Fc or GST; small tags and cut ends) VL: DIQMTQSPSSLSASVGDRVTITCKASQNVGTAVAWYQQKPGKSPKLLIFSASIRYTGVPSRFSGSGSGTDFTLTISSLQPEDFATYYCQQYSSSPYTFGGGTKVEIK VH: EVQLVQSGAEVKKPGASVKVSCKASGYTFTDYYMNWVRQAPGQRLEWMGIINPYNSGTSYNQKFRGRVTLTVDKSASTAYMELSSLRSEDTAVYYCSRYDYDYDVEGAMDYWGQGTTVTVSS
display_unit: MFI
assay_value: 148

binder: Hab009VL3aVH1-hFc (Fc fusion, part only; not given: Linker and human IgG1 Fc, not shown: a dimerising Fc or GST) chain, part: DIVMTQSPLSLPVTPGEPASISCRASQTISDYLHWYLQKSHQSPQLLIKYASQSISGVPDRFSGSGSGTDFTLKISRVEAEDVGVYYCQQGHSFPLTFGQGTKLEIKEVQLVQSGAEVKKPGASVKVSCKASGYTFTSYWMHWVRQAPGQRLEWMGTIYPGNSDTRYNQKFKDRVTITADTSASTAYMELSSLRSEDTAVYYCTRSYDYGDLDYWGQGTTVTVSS
display_unit: MFI
assay_value: 458

binder: Hab006VL1VH4-hFc (scFv, part only; not given: VL-VH linker and human IgG1 Fc, V domains shown, not shown: another chain or arm of the molecule; a dimerising Fc or GST; small tags and cut ends) VL: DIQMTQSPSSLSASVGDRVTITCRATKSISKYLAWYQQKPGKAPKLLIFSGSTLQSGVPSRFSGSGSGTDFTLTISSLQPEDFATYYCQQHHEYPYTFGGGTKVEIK VH: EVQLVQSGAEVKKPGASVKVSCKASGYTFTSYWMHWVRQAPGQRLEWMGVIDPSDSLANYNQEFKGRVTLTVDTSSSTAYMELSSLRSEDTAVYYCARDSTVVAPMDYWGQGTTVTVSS
display_unit: MFI
assay_value: 716

binder: Hab008L1H5-hFc (scFv, part only; not given: VL-VH linker and human IgG1 Fc, V domains shown, not shown: another chain or arm of the molecule; a dimerising Fc or GST; small tags and cut ends) VL: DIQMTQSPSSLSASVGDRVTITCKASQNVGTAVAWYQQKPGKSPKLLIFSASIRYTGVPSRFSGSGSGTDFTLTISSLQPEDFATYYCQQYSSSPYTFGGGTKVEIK VH: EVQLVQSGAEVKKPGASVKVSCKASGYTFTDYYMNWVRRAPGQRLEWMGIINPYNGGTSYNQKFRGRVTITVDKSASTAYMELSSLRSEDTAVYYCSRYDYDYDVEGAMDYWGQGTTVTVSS
display_unit: MFI
assay_value: 127

binder: Hab015VL4VH1b-hFc (scFv, part only; not given: VL-VH linker and human IgG1 Fc, V domains shown, not shown: another chain or arm of the molecule; a dimerising Fc or GST; small tags and cut ends) VL: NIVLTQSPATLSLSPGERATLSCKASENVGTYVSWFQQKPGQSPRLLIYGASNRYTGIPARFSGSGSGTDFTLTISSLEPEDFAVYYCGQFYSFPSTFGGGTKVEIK VH: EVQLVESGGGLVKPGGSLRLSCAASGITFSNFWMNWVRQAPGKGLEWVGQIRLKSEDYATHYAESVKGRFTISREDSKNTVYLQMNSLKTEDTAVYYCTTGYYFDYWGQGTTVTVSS
display_unit: MFI
assay_value: 152

binder: Hab014VL2VH1-hFc (scFv, part only; not given: scFv linker and human IgG1 Fc, V domains shown, not shown: another chain or arm of the molecule; a dimerising Fc or GST; small tags and cut ends) VL: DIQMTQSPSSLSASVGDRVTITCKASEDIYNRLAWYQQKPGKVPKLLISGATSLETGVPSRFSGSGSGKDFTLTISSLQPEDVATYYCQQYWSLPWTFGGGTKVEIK VH: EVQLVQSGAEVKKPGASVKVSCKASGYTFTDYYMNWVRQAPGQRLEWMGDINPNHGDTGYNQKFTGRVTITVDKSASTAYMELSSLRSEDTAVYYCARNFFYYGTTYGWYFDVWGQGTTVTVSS
display_unit: MFI
assay_value: 322

binder: Hab009VL2aVH1-hFc (scFv, part only; not given: VL-VH linker and human IgG1 Fc, V domains shown, not shown: another chain or arm of the molecule; a dimerising Fc or GST; small tags and cut ends) VL: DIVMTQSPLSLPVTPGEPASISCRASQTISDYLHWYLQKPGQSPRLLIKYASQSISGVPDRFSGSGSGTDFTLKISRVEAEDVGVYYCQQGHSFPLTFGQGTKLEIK VH: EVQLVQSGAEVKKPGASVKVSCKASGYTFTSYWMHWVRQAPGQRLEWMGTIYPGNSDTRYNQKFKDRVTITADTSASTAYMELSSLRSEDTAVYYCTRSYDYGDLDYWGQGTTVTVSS
display_unit: MFI
assay_value: 476

binder: Hab015VL5VH1a-hFc (scFv, part only; not given: scFv linker and human IgG1 Fc, V domains shown, not shown: another chain or arm of the molecule; a dimerising Fc or GST; small tags and cut ends) VL: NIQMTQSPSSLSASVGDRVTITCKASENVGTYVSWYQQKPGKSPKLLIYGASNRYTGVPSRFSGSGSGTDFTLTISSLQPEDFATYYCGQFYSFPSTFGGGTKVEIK VH: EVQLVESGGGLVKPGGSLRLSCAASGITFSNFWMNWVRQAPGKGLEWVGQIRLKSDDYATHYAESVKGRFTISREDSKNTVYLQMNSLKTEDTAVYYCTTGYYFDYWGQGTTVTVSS
display_unit: MFI
assay_value: 160

binder: Hab008L3H5-hFc (scFv, part only; not given: scFv linker and human IgG1 Fc, V domains shown, not shown: another chain or arm of the molecule; a dimerising Fc or GST; small tags and cut ends) VL: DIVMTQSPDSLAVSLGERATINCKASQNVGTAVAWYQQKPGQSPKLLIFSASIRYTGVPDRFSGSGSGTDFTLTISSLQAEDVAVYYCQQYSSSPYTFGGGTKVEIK VH: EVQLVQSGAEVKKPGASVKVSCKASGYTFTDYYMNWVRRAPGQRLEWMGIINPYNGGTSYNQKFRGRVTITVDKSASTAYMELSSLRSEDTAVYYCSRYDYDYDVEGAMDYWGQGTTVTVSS
display_unit: MFI
assay_value: 131

binder: Hab015VL4VH1a-hFc (scFv, part only; not given: scFv linker and human IgG1 Fc, V domains shown, not shown: another chain or arm of the molecule; a dimerising Fc or GST; small tags and cut ends) VL: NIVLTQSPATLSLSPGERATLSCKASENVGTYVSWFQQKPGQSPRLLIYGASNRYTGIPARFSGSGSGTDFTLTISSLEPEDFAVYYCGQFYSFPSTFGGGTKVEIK VH: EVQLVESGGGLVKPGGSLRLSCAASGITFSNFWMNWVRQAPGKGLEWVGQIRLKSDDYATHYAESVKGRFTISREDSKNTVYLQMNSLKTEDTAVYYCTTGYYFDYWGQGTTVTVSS
display_unit: MFI
assay_value: 152

binder: Hab008L3H2a-hFc (scFv, part only; not given: VL-VH linker and human IgG1 Fc, V domains shown, not shown: another chain or arm of the molecule; a dimerising Fc or GST; small tags and cut ends) VL: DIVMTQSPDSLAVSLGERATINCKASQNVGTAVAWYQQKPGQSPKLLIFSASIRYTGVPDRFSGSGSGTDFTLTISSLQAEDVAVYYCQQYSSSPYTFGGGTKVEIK VH: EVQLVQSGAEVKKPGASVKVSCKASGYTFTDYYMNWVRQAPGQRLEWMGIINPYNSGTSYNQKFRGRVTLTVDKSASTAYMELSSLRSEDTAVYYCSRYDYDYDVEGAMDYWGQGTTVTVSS
display_unit: MFI
assay_value: 126
